test system: HepG2; test: cell viability relative to DMSO; higher = less toxic; conditions: 72 h; 1000 nM
Assay readout: cell viability (%)
Record the value in %, omitting the unit from your answer.

Input line: Field request: cell viability | item: OCc1ccccc1O
Output line: 105

Input line: Reported cell viability, molecule C[C@@H]1CN(CCCn2c3ccccc3c3ccccc32)C[C@H](C)N1 : ____
Output line: 106

Input line: Could you tell me which cell viability is on file for COc1ccc(C2=N[C@@H](c3ccc(Cl)cc3)[C@@H](c3ccc(Cl)cc3)N2C(=O)N2CCNC(=O)C2)c(OC(C)C)c1 ?
Output line: 89.7

Input line: Entry under review: O=c1cc(N2CCOCC2)oc2c(-c3cccc4c3sc3ccccc34)cccc12 . Reported cell viability?
Output line: 88.4

Input line: What cell viability value was documented for this molecule, O=Cc1cn(Cc2ccc(Cl)cc2)c2ccccc12 ?
Output line: 40.3

Input line: Bench note: what cell viability did CCCCCCCCCCCCCCCCCC(=O)OC[C@@H](O)[C@H]1OC[C@H](O)[C@H]1O [sorbitan-monostearate] show?
Output line: 102

Input line: State the recorded cell viability for this entry: CC(CCc1ccc(O)cc1)NCCc1ccc(O)c(O)c1 (stereo unspecified)
Output line: 96.7

Input line: Which cell viability is reported for this molecule? CC(=O)NS(=O)(=O)c1ccc(NC(=O)c2ccccc2C(=O)O)cc1 [phthalylsulfacetamide]
Output line: 105

Input line: Endpoint output: cell viability of CC(C)(CCCCCC(O)CCCCCC(C)(C)C(=O)O)C(=O)O . Value?
Output line: 98.2

Input line: Tell me the measured cell viability of C=C1CC/C=C(\C)CC[C@@H]2[C@@H]1CC2(C)C , please.
Output line: 104

Input line: Tell me the measured cell viability of CC(O)Cn1cnc2c1c(=O)n(C)c(=O)n2C (stereo unspecified) , please.
Output line: 111

Input line: What measured cell viability goes with CC(C)CCNc1ncccc1C(=O)N1CCN(Cc2ccccc2)CC1 ?
Output line: 91.2

Input line: For the molecule shown here, O=S1(=O)OC(c2ccc(O)cc2)(c2ccc(O)cc2)c2ccccc21 , give the reported cell viability.
Output line: 99.6

Input line: // cell viability lookup, key: O=C(O)c1ccc(N2N=C(Cc3ccccc3)/C(=C\c3ccc(-c4ccccc4F)o3)C2=O)cc1
Output line: 95.8

Input line: Need cell viability of O=C(CCCN1CCC(n2c(=O)[nH]c3ccccc32)CC1)c1ccc(F)cc1 , thanks.
Output line: 107

Input line: Report cell viability for Cc1nc2cnc3ccc(C#Cc4cccnc4)cc3c2n1-c1ccc(C(C)(C)C#N)cc1 please.
Output line: 62.3

Input line: If you can, please state the reported cell viability value of COC(=O)CCC(=O)CN [methyl-aminolevulinate] .
Output line: 84

Input line: Quick one: cell viability for CN1Cc2c(N)cccc2C(c2ccccc2)C1 (stereo unspecified) ?
Output line: 103

Input line: Requested read-out: cell viability. Entry: NCCCC(O)(P(=O)(O)O)P(=O)(O)O [alendronate]
Output line: 95.4

Input line: // query cell viability value for entry CCCCC#Cc1nc(NC)c2ncn([C@@H]3O[C@H](CO)[C@@H](O)[C@H]3O)c2n1
Output line: 103

Input line: Consider the molecule Cc1ncc(CO)c(CO)c1O and give its measured cell viability.
Output line: 96.2

Input line: Need cell viability, item CN(C)CC/C=C1/c2ccccc2Sc2ccc(Cl)cc21
Output line: 98.4

Input line: // query cell viability value for entry CC(C)OC(=O)[C@H](C)N[P@](=O)(CO[C@H](C)Cn1cnc2c(N)ncnc21)Oc1ccccc1 [tenofovir-alafenamide]
Output line: 89

Input line: Requested field: cell viability. Item: CN(C)CC[C@H](CSc1ccccc1)Nc1ccc(S(=O)(=O)NC(=O)c2ccc(N3CCN(Cc4ccccc4-c4ccc(Cl)cc4)CC3)cc2)cc1[N+](=O)[O-]
Output line: 95.8

Input line: Given the entry Oc1ccc(/C=C/c2cc(O)cc(O)c2)cc1 , report its measured cell viability.
Output line: 97.9

Input line: Recorded cell viability of CCOC(=O)c1ccc(C#Cc2ccc3c(c2)C(C)(C)CCS3)nc1 , please.
Output line: 105

Input line: # cell viability lookup, item CC(C)(C)C(=O)OCC(=O)[C@H]1CC[C@H]2[C@@H]3CCC4=CC(=O)CC[C@]4(C)[C@H]3CC[C@]12C [desoxycorticosterone-pivalate]
Output line: 89

Input line: Looking for the measured cell viability of NC(=S)N/N=C/c1coc2ccccc2c1=O.[Cl][Cu][Cl] , can you help?
Output line: 109

Input line: Reported cell viability for O=C(O)CCC/C=C\C[C@@H]1[C@@H](/C=C/[C@@H](O)COc2cccc(Cl)c2)[C@H](O)C[C@@H]1O (racemic) [cloprostenol-(+/-)] : what is it?
Output line: 103

Input line: Name the recorded cell viability for S=C(NCCc1ccccn1)Nc1ccc(Br)cn1 .
Output line: 106

Input line: What value of cell viability has been recorded for this entry: C[C@H](NC[C@H](O)CP(=O)(O)CC1CCCCC1)c1ccc(Cl)c(Cl)c1
Output line: 98.6

Input line: Which cell viability reading was recorded for the molecule CCN(CCO)CCCC(C)Nc1ccnc2cc(Cl)ccc12 (stereo unspecified) [hydroxychloroquine] ?
Output line: 94.6

Input line: Report cell viability for Fc1cc(-c2cccc3ncc(-c4cnn(C5CCNCC5)c4)nc23)cc(F)c1CN1CCOCC1 please.
Output line: 93.1

Input line: Look at this molecule and give its reported cell viability. CCCSc1ccc2[nH]c(NC(=O)OC)nc2c1
Output line: 68.7

Input line: Look up cell viability: COc1ccc(N(C(=O)Oc2c(C)cccc2C)c2ccnc(Nc3ccc(N4CCN(C)CC4)cc3)n2)c(OC)c1
Output line: 100

Input line: Could you share which cell viability value was measured for COc1cc(Cc2cnc(N)nc2N)c(C(C)C)cc1OC ?
Output line: 101

* * *

system: Caco-2; assay: cell viability relative to DMSO; higher = less toxic; conditions: 72 h; 10000 nM
Hi! Just check whether cell viability is below 90%. Below gives yes (1), equal or above gives no (0).

Input line: Does the reported cell viability of O=C(CCCN1CCC(n2c(=O)[nH]c3ccccc32)CC1)c1ccc(F)cc1 [benperidol] stay below 90%?
Output line: no (0)

Input line: Threshold test, cell viability < 90%: C[C@H](Cc1ccc(O)c(O)c1)[C@@H](C)Cc1ccc(O)c(O)c1 [masoprocol]
Output line: yes (1)

Input line: State whether 90% exceeds cell viability recorded for COc1cc2c(NC3CCN(C)CC3)nc(N3CCCN(C)CC3)nc2cc1OCCOCCN(C)C [UNC0321] .
Output line: no (0)

Input line: Hi there! Is cell viability for CCCCCCCCCCCCCCCC[N+](C)(C)CCN(Cc1ccc(OC)cc1)c1ncccn1 [thonzonium] below 90%, do you know?
Output line: yes (1)

Input line: In the record for CC(COc1ccccc1Cc1ccccc1)N1CCCCC1 (stereo not given) [benproperine] , is cell viability less than 90%?
Output line: yes (1)

Input line: Say whether its cell viability is strictly beneath 90%. Entry: CC(C)c1cc(-c2n[nH]c(=O)n2-c2ccc3c(ccn3C)c2)c(O)cc1O [ganetespib]
Output line: yes (1)

Input line: Check if cell viability falls below 90% for CC=CC1=C(C(=O)O)N2C(=O)[C@@H](NC(=O)[C@H](N)c3ccc(O)cc3)[C@H]2SC1 (mixture of isomers) [cefprozil] .
Output line: no (0)

Input line: Problem: For the compound CC1=C(C(=O)O)N2C(=O)[C@@H](NC(=O)[C@H](N)c3ccccc3)[C@H]2SC1 [cephalexin] , is cell viability under 90%?
Output line: no (0)

Input line: Identify whether the compound CN1C(=O)COc2c(C(=O)NC3CN4CCC3CC4)cc(Cl)cc21 (stereo not given) [azasetron] records cell viability below 90%.
Output line: no (0)

Input line: Take the compound CN(C)C(=O)Nc1cccc(-c2ccc(N(C)C)cc2)c1 [atglistatin] and say whether its cell viability is less than 90%.
Output line: no (0)

Input line: Criterion: cell viability strictly below 90%. Is it met by C[C@H]1[C@H](C)CC[C@]2(C(=O)O)CC[C@]3(C)C(=CC[C@@H]4[C@@]5(C)C[C@@H](O)[C@H](O)[C@@](C)(CO)[C@@H]5CC[C@]43C)[C@H]12 [asiatic-acid] ?
Output line: no (0)

Input line: Find out if reported cell viability for CCOc1ccc(NC(C)=O)cc1 [phenacetin] is less than 90%
Output line: yes (1)

Input line: # TODO verify cell viability < 90% strictly for this compound: O=C(Oc1ccccc1C(=O)O)c1ccccc1O [sasapyrine]
Output line: yes (1)

Input line: For COc1cccc2c1C(=O)c1c(O)c3c(c(O)c1C2=O)C[C@@](O)(C(C)=O)C[C@@H]3O[C@H]1C[C@H](N)[C@H](O)[C@H](C)O1 [daunorubicin] , is the recorded cell viability below the cut-off of 90%?
Output line: yes (1)

Input line: A record lists Nc1nccc(/C=C/c2ccccc2)n1 [TCN238] . Is its cell viability below 90%?
Output line: yes (1)

Input line: Hello, is cell viability of the following compound strictly smaller than 90%? CC(C)NC(=N)NC(=N)Nc1ccc(Cl)cc1 [proguanil]
Output line: no (0)

Input line: Threshold test, cell viability < 90%: Cc1cccc(-c2nn3c(c2-c2ccnc4ccc(C(N)=O)cc24)CCC3)n1
Output line: no (0)

Input line: Consider the compound CC(C)c1ccc(NC(=O)c2cccs2)c(-c2nc3ccccc3[nH]c2=O)c1 [ML281] . Is its cell viability strictly less than 90%?
Output line: no (0)

Input line: Regarding C[C@H](Cn1cnc2c(N)ncnc21)OCP(=O)(O)O [tenofovir] , kindly confirm whether its cell viability is beneath 90%.
Output line: no (0)

Input line: # TODO verify cell viability < 90% strictly for this compound: CCOC(=O)Nc1ccc(NCc2ccc(F)cc2)cc1N [Retigabine]
Output line: no (0)

Input line: Record N#Cc1cc(-c2n[nH]c(-c3ccncc3)n2)ccn1 [topiroxostat] : is its cell viability strictly below 90%?
Output line: no (0)

Input line: Check if cell viability falls below 90% for N#Cc1ccnc(N2C(=O)CC[C@H]2C(=O)N(c2cncc(F)c2)[C@H](C(=O)NC2CC(F)(F)C2)c2ccccc2Cl)c1 [ivosidenib] .
Output line: no (0)

Input line: API: query returns whether the compound falls strictly under 90% in cell viability. Query: Nc1c2c(nc3c1CCC3)CCCC2 [ipidacrine]
Output line: no (0)

Input line: Field: below-cutoff. Rule: recorded cell viability strictly less than 90%. Subject: CC[N+](C)(CC)CC(=O)Nc1c(C)cccc1C [N-methyllidocaine-iodide]
Output line: no (0)

Input line: Is 90% strictly greater than the compound's reported cell viability? compound: NNCCc1ccccc1 [phenelzine]
Output line: yes (1)

Input line: I'd appreciate it if you could check whether N#Cc1cnc2cnc(NCc3cccnc3)cc2c1Nc1ccc(F)c(Cl)c1 [TC-S-7006] has cell viability smaller than 90%.
Output line: yes (1)

Input line: Dear reviewer, please state whether CSc1ccc2c(c1)[C@H](N1CCN(C)CC1)Cc1ccccc1S2 (racemic) [metitepine] has cell viability strictly beneath 90%.
Output line: yes (1)

Input line: Quick check: cell viability of CC(C)N(CCCCOCC(=O)NS(C)(=O)=O)c1cnc(-c2ccccc2)c(-c2ccccc2)n1 [selexipag] under 90%?
Output line: no (0)

Input line: Regarding O=C1C=C2C=C[C@@H]3C[C@@]2(O1)[C@H]1CCCCN31 [securinine] , kindly confirm whether its cell viability is beneath 90%.
Output line: no (0)
